# Test system: Dd2
# assayInfo: qHTS profiling for inhibitors of Plasmodium falciparum proliferation (AID 504749); further: nearly all actives have a fitted effect of over 60% in size
# testContext: P. falciparum in erythrocytes, SYBR Green DNA, 72 h; series mostly up to 28.7 µM
Records with an inconclusive call do not appear. Calls of active or inactive are those of the source. The call rests on the fitted dose curve; in most records, active means well fitted inhibition curve with a large enough effect; inconclusive means small, poorly fitted or top-dose-only effect; inactive means flat fitted curve, though single readings scatter.
Possible outcomes: t = active, f = inactive

- compound: "CC(C)NCC(O)c1ccccc1Cl (centres undefined)"
  classLabel: "t"
- compound: "CN1C[C@H](CNC(=O)OCc2ccccc2)C[C@@H]2c3cccc4c3c(cn4C)C[C@H]21"
  classLabel: "t"
- compound: "CCN(C(C)=O)c1cccc(-c2ccnc3c(C#N)cnn23)c1"
  classLabel: "f"
- compound: "CCC(COC(=O)c1cc(OC)c(OC)c(OC)c1)(c1ccccc1)N(C)C (centres undefined)"
  classLabel: "f"
- compound: "c1ccc2c(c1)Nc1ccccc1S2"
  classLabel: "f"
- compound: "NP(N)(=O)NC(=O)c1ccc(F)cc1"
  classLabel: "f"
- compound: "CC(C)CC(N(C)C)C1(c2ccc(Cl)cc2)CCC1 (centres undefined)"
  classLabel: "f"
- compound: "C[C@]12C/C(=C/O)C(=O)C[C@@H]1CC[C@@H]1[C@@H]2CC[C@@]2(C)[C@H]1CC[C@]2(C)O"
  classLabel: "f"
- compound: "Cc1cccc(C)c1NC1=NCCCS1"
  classLabel: "t"
- compound: "CN1C(=S)CN=C(c2ccccc2)c2cc(Cl)ccc21"
  classLabel: "f"
- compound: "NCC1(CC(=O)O)CCCCC1"
  classLabel: "f"
- compound: "Cn1c(CCCC(=O)O)nc2cc(N(CCCl)CCCl)ccc21"
  classLabel: "f"
- compound: "CN1CCN(C(=O)O[C@H]2c3nccnc3C(=O)N2c2ccc(Cl)cn2)CC1"
  classLabel: "f"
- compound: "CCOP(=S)(OCC)Oc1cc(C)nc(C(C)C)n1"
  classLabel: "f"

###

# testSystem: N-terminal Xaa-Pro-Lys N-methyltransferase 1 (Homo sapiens)
# assayInfo: qHTS Assay for Inhibitors of N-terminal methyltransferase 1 (NTMT1): LOPAC validation of the NTMT1 SAHH-coupled ThioGlo3 Assay (AID 1347143);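 further: SAH from peptide methylation measured as thiol fluorescence via SAHH coupling and ThioGlo3; nearly all actives have a fitted effect of over 70% in size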
# testContext: recombinant NTMT1, SAHH-coupled ThioGlo3 fluorescence; series mostly up to 114 µM
Results filed as inconclusive are left out. Calls of active or inactive are those of the source. Calls come from the whole dose curve; as a rule, active = well fitted inhibition curve with a large enough effect; inconclusive = small, poorly fitted or top-dose-only effect; inactive = no such curve, though single readings can be large or run the other way.
Classes used: true (1) for active, false (0) for inactive

- chemicalSmiles: "O=c1[nH]c2ccccc2n1C1CCN(CCCC(c2ccc(F)cc2)c2ccc(F)cc2)CC1"
  classLabel: "false (0)"
- chemicalSmiles: "C[C@@H]1O[C@@H](O[C@H]2C[C@@H](O)[C@]3(CO)[C@H]4[C@H](O)C[C@]5(C)[C@@H](C6=CC(=O)OC6)CC[C@]5(O)[C@@H]4CC[C@]3(O)C2)[C@H](O)[C@H](O)[C@H]1O"
  classLabel: "false (0)"
- chemicalSmiles: "NCC1(CC(=O)O)CCCCC1"
  classLabel: "false (0)"
- chemicalSmiles: "CC(=O)[C@H]1CC[C@H]2[C@@H]3CC[C@H]4C[C@H](O)CC[C@]4(C)[C@H]3C(=O)C[C@]12C"
  classLabel: "false (0)"
- chemicalSmiles: "Cn1c(CCCC(=O)O)nc2cc(N(CCCl)CCCl)ccc21"
  classLabel: "true (1)"
